# target.of.assay: T1, Lup an 1 (Lupinus angustifolius (by the …, UniProt F5B8W3))
# T1 construct: Lup an 1, lupin β-conglutin, a 7S seed storage globulin of the vicilin-like proteins; found by LC-MS/MS of the ~55 kDa band immunocaptured from crude lupine extract; UniProt F5B8W3.1; size distribution printed as 55 to 61 kDa; Never purified: it stood in a crude lupine protein extract in every experiment; Seen as a band of ~55 kDa; also called lupin β-conglutin; lupine allergen Lup an 1; source: …
# assay.summary: ELISA; crude lupine extract (50 μg/mL) coated overnight at 4 °C; Nbs serially diluted in PBS, 1 h at room temperature; detected by mouse anti-His IgG and HRP goat anti-mouse IgG; apparent affinity = concentration at half of the maximum signal
# experimental.context: one partner purified
Field: pEC50. Provide a value for each of the binders that follow.
One number for each entry, as −log10 of the molar value.

Previously resolved entries follow.
{"columns": ["binder", "reported.property", "value.reported"],
 "data": [
  ["Nb B42 (His- and HA-tagged) (VHH, also called Nb42; source: E. coli WK6 (pMECS), periplasmic, purified (IMAC, SEC)) VHH: QVQLQESGGGLVQAGGSLRLSCAASGRTFSSYAMGWFRQAPGKEREFVAAISWSGGSTYYADSVKGRFTISRDNAKNTVYLQMNSLKPEDTAVYYCAVDQWILEVNAAFQADYWGQGTQVTVSS", "pEC50", 7.62],
  ["Nb B91 (His- and HA-tagged) (VHH, also called Nb91; source: E. coli WK6 (pMECS), periplasmic, purified (IMAC, SEC)) VHH: QVQLQESGGGLVQAGDSLRLSCASSGRTFSSYGVGWFRQAPGKEREFVAAISWNGGSASYADSVKGRFTVSRDNAKNTVYLQMNSLQPEDTADYYCAAKVEALYGTDYFRDYDYWGQGTQVTVSS", "pEC50", 8.05],
  ["Nb B69 (His- and HA-tagged) (VHH, also called Nb69; source: E. coli WK6 (pMECS), periplasmic, purified (IMAC, SEC)) VHH: QVQLQESGGGLVQPGGSLRLSCVSSERTFSPYTMAWFRQAPGKERDFVADIRWGDGTTRYADSVKGRFTISRDNAKNTVFLQTNSLTPEDTAVYYCAHKTWYPRSFQAASYDFWGQGTQVTVSS", "pEC50", 6.49]
]}

Could you now look at the following binder, please?
Entry Nb B165 (His- and HA-tagged) (VHH, also called Nb165; source: E. coli WK6 (pMECS), periplasmic, purified (IMAC, SEC)) VHH: QVQLQESGGGLVQAGGSLRLSCAASTRTFSSDAMGWFRQAPGKEREFVAAISISTYYADSVKGRFTISRDNAKNTMYLQMNRLKPEDTAVYYCAVKPFYGGIRYPNEYPYWGQGTQVTVSS , pEC50 reported as 7.51
